molecular target: ZBTB7A (Homo sapiens, UniProt O95365+Q96SW2); construct: HUDEP-2 cells engineered to express a HiBiT tag in either the WIZ (Widely interspaced zinc finger) or ZBTB7A; experiment: HUDEP-2 ZBTB7A HiBiT degradation assay; type: cell-based; conditions: HiBiT-tagged ZBTB7A degradation in HUDEP-2 cells, 24 hours of treatment; read-out: ZBTB7A EC50
Sequence (O95365 whole entry): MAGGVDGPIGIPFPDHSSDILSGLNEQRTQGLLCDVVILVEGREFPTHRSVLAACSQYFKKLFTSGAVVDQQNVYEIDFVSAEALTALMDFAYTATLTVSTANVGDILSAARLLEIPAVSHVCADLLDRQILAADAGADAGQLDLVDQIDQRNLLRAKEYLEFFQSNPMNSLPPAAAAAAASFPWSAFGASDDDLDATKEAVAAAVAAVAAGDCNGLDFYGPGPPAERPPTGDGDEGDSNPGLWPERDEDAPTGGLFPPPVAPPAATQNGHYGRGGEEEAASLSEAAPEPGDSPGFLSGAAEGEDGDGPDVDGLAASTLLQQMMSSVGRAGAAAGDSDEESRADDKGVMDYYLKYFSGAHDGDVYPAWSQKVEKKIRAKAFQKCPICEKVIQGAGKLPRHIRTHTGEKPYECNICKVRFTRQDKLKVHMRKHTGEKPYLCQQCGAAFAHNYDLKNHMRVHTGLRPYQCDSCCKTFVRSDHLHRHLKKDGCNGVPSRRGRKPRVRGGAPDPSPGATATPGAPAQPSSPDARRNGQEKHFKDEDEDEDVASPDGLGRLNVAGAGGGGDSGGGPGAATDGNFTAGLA
Sequence (Q96SW2 whole entry): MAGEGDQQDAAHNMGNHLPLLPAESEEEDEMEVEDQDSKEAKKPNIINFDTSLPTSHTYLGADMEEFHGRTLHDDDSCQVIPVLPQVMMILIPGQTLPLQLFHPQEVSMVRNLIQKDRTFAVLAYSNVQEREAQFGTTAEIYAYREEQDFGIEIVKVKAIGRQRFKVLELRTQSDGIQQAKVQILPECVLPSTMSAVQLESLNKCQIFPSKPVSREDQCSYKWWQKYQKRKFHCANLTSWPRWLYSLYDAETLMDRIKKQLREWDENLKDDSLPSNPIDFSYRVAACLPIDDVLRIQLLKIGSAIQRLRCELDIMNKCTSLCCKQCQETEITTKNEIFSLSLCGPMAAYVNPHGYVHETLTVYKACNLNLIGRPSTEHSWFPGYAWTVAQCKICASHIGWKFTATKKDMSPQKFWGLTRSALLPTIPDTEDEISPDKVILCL
Sequence (Q16531 whole entry partner): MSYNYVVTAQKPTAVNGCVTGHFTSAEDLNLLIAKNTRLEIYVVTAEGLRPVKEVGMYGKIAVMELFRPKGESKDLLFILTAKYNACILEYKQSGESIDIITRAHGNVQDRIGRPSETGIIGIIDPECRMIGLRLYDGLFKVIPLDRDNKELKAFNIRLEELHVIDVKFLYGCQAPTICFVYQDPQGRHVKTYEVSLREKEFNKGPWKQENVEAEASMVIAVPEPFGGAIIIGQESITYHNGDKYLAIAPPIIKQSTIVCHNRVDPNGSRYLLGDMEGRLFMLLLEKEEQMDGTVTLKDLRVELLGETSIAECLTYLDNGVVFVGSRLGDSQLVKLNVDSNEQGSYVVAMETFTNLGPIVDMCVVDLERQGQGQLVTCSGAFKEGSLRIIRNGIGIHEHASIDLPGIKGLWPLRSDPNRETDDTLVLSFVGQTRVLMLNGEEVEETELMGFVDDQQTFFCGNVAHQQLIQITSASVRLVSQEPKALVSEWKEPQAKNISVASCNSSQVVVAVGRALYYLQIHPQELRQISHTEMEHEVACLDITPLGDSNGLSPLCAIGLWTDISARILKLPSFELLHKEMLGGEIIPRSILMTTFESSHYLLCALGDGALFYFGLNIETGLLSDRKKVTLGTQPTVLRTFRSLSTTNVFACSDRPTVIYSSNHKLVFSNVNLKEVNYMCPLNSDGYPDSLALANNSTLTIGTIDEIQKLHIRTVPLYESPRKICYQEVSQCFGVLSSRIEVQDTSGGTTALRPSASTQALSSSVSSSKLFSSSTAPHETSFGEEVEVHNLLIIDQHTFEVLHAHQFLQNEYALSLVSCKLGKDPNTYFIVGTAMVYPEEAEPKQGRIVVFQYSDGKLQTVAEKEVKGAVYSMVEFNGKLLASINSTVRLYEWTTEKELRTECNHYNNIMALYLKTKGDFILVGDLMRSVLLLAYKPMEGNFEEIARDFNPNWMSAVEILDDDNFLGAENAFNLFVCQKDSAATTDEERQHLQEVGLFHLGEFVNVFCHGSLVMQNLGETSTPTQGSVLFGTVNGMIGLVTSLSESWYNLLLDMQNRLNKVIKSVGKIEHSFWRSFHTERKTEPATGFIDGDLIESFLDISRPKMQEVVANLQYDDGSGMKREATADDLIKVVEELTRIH
READOUT LABEL: DC50 (nM)

Below, each entry is followed by its recorded DC50 result.
GET /values?readout=DC50&system=ZBTB7A (Homo sapiens, UniProt O95365+Q96SW2)&item= CCO[C@H]1CC[C@H](c2cc3c(cc2Nc2cccc4c2C(=O)N([C@H]2CCC(=O)NC2=O)C4=O)N(C)C(=O)[C@@H](C)O3)CC1
10

GET /values?readout=DC50&system=ZBTB7A (Homo sapiens, UniProt O95365+Q96SW2)&item= Cc1cncc(-c2cc3c(cc2Nc2cccc4c2C(=O)N([C@H]2CCC(=O)NC2=O)C4=O)N(C)C(=O)CO3)c1
17

GET /values?readout=DC50&system=ZBTB7A (Homo sapiens, UniProt O95365+Q96SW2)&item= COc1ccc(-c2cc3c(cc2Nc2cccc4c2C(=O)N([C@H]2CCC(=O)NC2=O)C4=O)N(C)C(=O)[C@H](C)O3)cn1
16

GET /values?readout=DC50&system=ZBTB7A (Homo sapiens, UniProt O95365+Q96SW2)&item= Cc1cc(-c2cc3c(cc2Nc2cccc4c2C(=O)N([C@H]2CCC(=O)NC2=O)C4=O)N(C)C(=O)O[C@@H]3C)c(F)cn1
10

GET /values?readout=DC50&system=ZBTB7A (Homo sapiens, UniProt O95365+Q96SW2)&item= Cc1cc(-c2cc3c(cc2Nc2cccc4c2C(=O)N([C@H]2CCC(=O)NC2=O)C4=O)N(C)C(=O)CO3)cc(C)n1
21

a = Cc1cc(-c2cc3c(cc2Nc2cccc4c2C(=O)N(C2CCC(=O)NC2=O)C4=O)N(C)C(=O)CC3C)ccn1 (stereo not shown)
b = Cc1cc(-c2cc3c(cc2Nc2cccc4c2C(=O)N([C@H]2CCC(=O)NC2=O)C4=O)N(C)[C@H](C)CO3)ccn1
c = Cc1cc(-c2cc3c(cc2Nc2cccc4c2C(=O)N([C@H]2CCC(=O)NC2=O)C4=O)N(C)C(=O)CO3)cc(N)n1
d = Cc1cc(-c2cc3c(cc2Nc2cccc4c2C(=O)N([C@H]2CCC(=O)NC2=O)C4=O)N(C2CC2)C(=O)CO3)ccn1
Rank descending by DC50. Form entry: ranked labels (order as requested).
d, b, c, a

A = Cc1cc(-c2c(Nc3cccc4c3C(=O)N([C@H]3CCC(=O)NC3=O)C4=O)cc3c(c2F)OCC(=O)N3C)c(F)cn1
B = Cc1cc(-c2cc3c(cc2Nc2cccc4c2C(=O)N([C@H]2CCC(=O)NC2=O)C4=O)N(C)C(=O)[C@@H](C)O3)c(F)cn1
Sort A and B by DC50 descending and give the first. Identify your selection by its label.
A

A = Cc1cc(-c2cc3c(cc2Nc2cccc4c2C(=O)N(C2CCC(=O)NC2=O)C4=O)N(C)C(=O)CO3)ccn1 (stereo not shown)
B = Cc1cc(-c2cc3c(cc2Nc2cccc4c2C(=O)N([C@H]2CCC(=O)NC2=O)C4=O)N(C)C(=O)OC3C)cc(C)n1 (stereo partly shown)
Sort A and B by DC50 descending and give the first. Identify your selection by its label.
B
(B: 21 nM, A: 11 nM)
